Molecular target: full-length beta-Catenin (Uniprot ID P35222) (Homo sapiens, UniProt P35222)
Construct: 10 nM full-length beta-Catenin (Uniprot ID P35222)
Sequence (P35222 whole entry): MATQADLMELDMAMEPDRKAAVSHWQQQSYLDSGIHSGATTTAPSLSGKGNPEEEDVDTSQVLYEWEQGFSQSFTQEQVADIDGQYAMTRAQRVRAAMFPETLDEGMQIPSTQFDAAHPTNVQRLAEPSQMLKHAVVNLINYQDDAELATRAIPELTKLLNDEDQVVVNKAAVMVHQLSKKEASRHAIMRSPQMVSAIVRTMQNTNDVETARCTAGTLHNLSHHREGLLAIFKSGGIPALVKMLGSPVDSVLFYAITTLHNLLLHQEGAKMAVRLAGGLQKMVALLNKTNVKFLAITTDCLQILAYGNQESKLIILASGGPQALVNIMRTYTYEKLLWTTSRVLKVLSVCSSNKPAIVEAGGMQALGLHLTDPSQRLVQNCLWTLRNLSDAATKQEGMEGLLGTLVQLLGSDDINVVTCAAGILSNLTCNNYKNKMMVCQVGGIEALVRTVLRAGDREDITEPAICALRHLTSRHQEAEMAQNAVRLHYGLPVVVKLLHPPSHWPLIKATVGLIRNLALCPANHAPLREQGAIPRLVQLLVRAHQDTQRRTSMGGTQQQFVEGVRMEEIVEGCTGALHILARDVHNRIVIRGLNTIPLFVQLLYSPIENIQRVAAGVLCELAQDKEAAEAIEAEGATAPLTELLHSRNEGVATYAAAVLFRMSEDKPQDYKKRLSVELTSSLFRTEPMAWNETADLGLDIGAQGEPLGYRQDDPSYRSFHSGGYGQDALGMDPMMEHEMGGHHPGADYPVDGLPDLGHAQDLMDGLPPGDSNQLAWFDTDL
Test: Fluorescence polarization IC50 (beta-catenin / 5FAM-TCF4 10-53 competition)
Format: binding
Settings: fluorescence polarization; read-out: beta-Catenin FP IC50
Measured Property: pIC50
Entry type: numeric. Quantity: pIC50, the -log10 of concentration in molar units.

Query :: Tell us which pIC50 value is on record for COc1ccccc1C[C@H](NC(=O)[C@]1(C)CCCCCCC=CCCCC2(CCCC=CC[C@]3(CCCN3C(C)=O)C(=O)N[C@@H](CC(=O)O)C(=O)N[C@@H](C)C(=O)N2)C(=O)N[C@@H](CC(=O)O)C(=O)N[C@@H](CCC(=O)O)C(=O)N[C@@H](C)C(=O)N[C@@H](C)C(=O)N[C@@H](Cc2ccccc2)C(=O)N[C@@H](CC(N)=O)C(=O)N1)C(=O)N[C@@H](Cc1csc2ccccc12)C(=O)N[C@@H](Cc1c[nH]cn1)C(N)=O (some centres unmarked) [I-511]
Result :: 7.40

Query :: Fill in pIC50 for record CC(=O)N1CCC[C@]12CC=CCCCC1(CCCC=CCCCOC(=O)N3CC[C@@](C(=O)N[C@@H](Cc4ccsc4)C(=O)N[C@@H](Cc4csc5ccccc45)C(=O)N[C@@H](CCC(N)=O)C(N)=O)(C3)NC(=O)[C@H](CC(C)C)NC(=O)[C@H](Cc3ccccc3)NC(=O)[C@H](C)NC(=O)[C@H](C)NC(=O)[C@H](CCn3cc(CCC(=O)O)nn3)NC(=O)[C@H](CC(=O)O)NC1=O)NC(=O)[C@H](CC(C)(C)C)NC(=O)[C@H](CC(=O)O)NC2=O (some centres unmarked)
Result :: 7.80

Query :: Report pIC50, nothing else, for this compound: CC(=O)N1CCC[C@]12CC=CCCCC1(CCCC=CCCCOC(=O)N3CC[C@@](C(=O)N[C@@H](Cc4ccccc4C(F)(F)F)C(=O)N[C@@H](Cc4ccc5ccccc5c4)C(=O)N[C@@H](C)C(N)=O)(C3)NC(=O)[C@H](CC(C)C)NC(=O)[C@H](Cc3ccccc3)NC(=O)[C@H](C)NC(=O)[C@H](CCC(N)=O)NC(=O)[C@H](Cc3cccc(C(=O)O)c3)NC(=O)[C@H](CC(=O)O)NC1=O)NC(=O)[C@H](CC(C)(C)C)NC(=O)[C@H](CC(=O)O)NC2=O (some centres unmarked)
Result :: 7.12

Query :: Give me measured pIC50, please, for this compound: CC(=O)N1CCC[C@]12CC=CCCCC1(CCCC=CCCCOC(=O)N3CC[C@@](C(=O)N[C@@H](Cc4ccccc4C(F)(F)F)C(=O)N[C@@H](Cc4csc5ccccc45)C(=O)N[C@@H](CCC(=O)N4CCOCC4)C(N)=O)(C3)NC(=O)[C@H](CCC(=O)N3CCOCC3)NC(=O)[C@H](Cc3ccccc3)NC(=O)[C@H](C)NC(=O)[C@H](C)NC(=O)[C@H](Cc3cccc(C(=O)O)c3)NC(=O)[C@H](CC(=O)O)NC1=O)NC(=O)[C@H](CC(C)(C)C)NC(=O)[C@H](CC(=O)O)NC2=O (some centres unmarked) [I-2547]
Result :: 7.89

Query :: Fill in reported pIC50 for this entry: CC(=O)N1CCC[C@]12CC=CCCCC1(CCCC=CCCCOC(=O)N3CC[C@@](C(=O)N[C@@H](Cc4ccccc4Cl)C(=O)N[C@@H](Cc4csc5ccccc45)C(=O)N[C@H](CO)[C@@H](C)O)(C3)NC(=O)[C@H]([C@@H](C)O)NC(=O)[C@H](Cc3ccccc3)NC(=O)[C@H](C)NC(=O)[C@H](C)NC(=O)[C@H]([C@@H](C)O)NC(=O)[C@H](CC(=O)O)NC1=O)NC(=O)[C@H](CC1CCCCC1)NC(=O)[C@H](CC(=O)O)NC2=O (some centres unmarked)
Result :: 6.91

----------
Consider the following compounds; for each one, report its IC50.
Biological target: full-length beta-Catenin (Uniprot ID P35222) (Homo sapiens)
Construct: 10 nM full-length beta-Catenin (Uniprot ID P35222)
Experiment: Fluorescence polarization IC50 (beta-catenin / 5FAM-TCF4 10-53 competition)
Assay type: binding
Settings: fluorescence polarization, beta-catenin; read-out: FP EC50
Response body: numeric value in µM, unit text excluded.

Query :: Give me measured IC50, please, for this compound: CC(=O)N1CCC[C@]12CC=CCCCC1(CCCC=CCCCCCC[C@@](C)(C(=O)N[C@@H](Cc3ccsc3)C(=O)N[C@@H](Cc3csc4ccccc34)C(=O)N[C@@H](CCC(N)=O)C(N)=O)NC(=O)[C@H](CC(N)=O)NC(=O)[C@H](Cc3ccccc3)NC(=O)[C@H](C)NC(=O)[C@H](C)NC(=O)[C@H](CC(=O)O)NC(=O)[C@H](CC(=O)O)NC1=O)NC(=O)[C@H](CC(C)(C)C)NC(=O)C[C@H](CC(=O)O)NC2=O (stereo partly drawn) [I-1164]
Result :: 0.162

Query :: Give IC50 for CC[C@H](C)[C@H](NC(=O)[C@H](CC(=O)O)NC(=O)[C@H](C)NC(C)=O)C(=O)N[C@]1(C)CCN(C)C(=O)OCC=CCCCCC[C@@](C)(C(=O)N[C@@H](Cc2ccccc2)C(=O)N[C@@H](Cc2c[nH]c3ccccc23)C(=O)N[C@@H](Cc2c[nH]cn2)C(N)=O)NC(=O)[C@H](CCC(N)=O)NC(=O)[C@H](Cc2ccccc2)NC(=O)[C@H](C)NC(=O)[C@H](C)NC(=O)[C@H](CCC(=O)O)NC(=O)[C@H](CC(=O)O)NC1=O [I-67]
Result :: 1.23

Query :: Provide measured IC50 value, entry: CC(=O)N1CCC[C@]12CC=CCCCC1(CCCC=CCCCCCC[C@@](C)(C(=O)N[C@@H](Cc3ccccc3)C(=O)N[C@@H](Cc3c[nH]c4ccccc34)C(=O)N[C@@H](CCC(N)=O)C(N)=O)NC(=O)[C@H](C(C)C)NC(=O)[C@H](Cc3ccc(N)cc3)NC(=O)[C@H](C)NC(=O)[C@H](C)NC(=O)[C@H](CC(=O)O)NC(=O)[C@H](CC(=O)O)NC1=O)NC(=O)[C@H](C)NC(=O)[C@H](CC(=O)O)NC2=O (stereo partly drawn)
Result :: 3.47

----------
Test: CHI Log D procedure
Assay type: physicochemical
Conditions: pH 7.4, CHI Log D
Exercise: for every item that follows, state its recorded chromatographic logD.
Write the value as a bare number.

Query :: Give chromatographic logD for CC(=O)N1CCC[C@]12CC=CCCCC1(CCCC=CCCCCCC[C@@](C)(C(=O)N[C@@H](Cc3ccsc3)C(=O)N[C@@H](Cc3csc4ccccc34)C(=O)N[C@@H](CCC(N)=O)C(N)=O)NC(=O)[C@H](CC(N)=O)NC(=O)[C@H](Cc3ccccc3)NC(=O)[C@H](C)NC(=O)[C@H](C)NC(=O)[C@H](CN(CC(=O)O)CC(F)(F)F)NC(=O)[C@H](CC(=O)O)NC1=O)NC(=O)[C@H](CC(C)(C)C)NC(=O)[C@H](CC(=O)O)NC2=O (some centres unmarked)
Result :: 2.75

Query :: Determine from records and report chromatographic logD for CC(=O)N1CCC[C@]12CC=CCCCC1(CCCC=CCCCOC(=O)N3CC[C@@](C(=O)N[C@@H](Cc4ccsc4)C(=O)N[C@@H](Cc4csc5ccccc45)C(=O)N[C@@H](CC(N)=O)C(N)=O)(C3)NC(=O)[C@H](CC(N)=O)NC(=O)[C@H](Cc3ccccc3)NC(=O)[C@H](C)NC(=O)[C@H](C)NC(=O)[C@H](CC(=O)O)NC(=O)[C@H](CC(=O)O)NC1=O)NC(=O)[C@H](CC(C)(C)C)NC(=O)[C@H](CC(=O)O)NC2=O (some centres unmarked)
Result :: 2.05

----------
Experiment: CHI Log D procedure
Format: physicochemical
Settings: pH 7.4, CHI Log D
Starred links: 1 amine or outer side, 2 acyl side, 3 side chain; linkers in the order of their positions; H or OH if unused. Non-standard residues stand in square brackets, D forms with d. Residues, ends and D or L forms follow the SMILES beside them. X2 = C=CCCCC(CCCC=C)(N[*:1])C(=O)[*:2]; Bta = N[C@@H](Cc1csc2ccccc12)C(=O)O; αAllylPro = C=CC[C@@]1(C(=O)O)CCCN1; S8 = C=CCCCCCC[C@](C)(N)C(=O)O
Measured Property: chromatographic logD

Query :: Provide only the value of recorded chromatographic logD for CC(=O)N1CCC[C@]12CC=CCCCC1(CCCC=CCCCCCC[C@@](C)(C(=O)N[C@@H](Cc3ccccc3)C(=O)N[C@@H](Cc3csc4ccccc34)C(=O)N[C@@H](CCC(N)=O)C(N)=O)NC(=O)[C@H](CCC(N)=O)NC(=O)[C@H](Cc3ccccc3)NC(=O)[C@H](C)NC(=O)[C@H](C)NC(=O)[C@H](Cc3ccc4ccccc4c3)NC(=O)[C@H](CC(=O)O)NC1=O)NC(=O)[C@H](C)NC(=O)[C@H](CC(=O)O)NC2=O (stereo partly drawn) [I-295]
Result :: 2.66

Query :: Fill in chromatographic logD for record C=CCCCCCC[C@](C)(NC(=O)[C@H](CCC(N)=O)NC(=O)[C@H](Cc1ccccc1)NC(=O)[C@H](C)NC(=O)[C@H](C)NC(=O)[C@H](CC(=O)O)NC(=O)[C@H](CC(=O)O)NC(=O)C(CCCC=C)(CCCC=C)NC(=O)[C@H](C)NC(=O)[C@H](CC(=O)O)NC(=O)[C@]1(CC=C)CCCN1C(C)=O)C(=O)N[C@@H](Cc1ccccc1)C(=O)N[C@@H](Cc1csc2ccccc12)C(=O)N[C@@H](CCC(N)=O)C(N)=O [I-578] (Ac-[αAllylPro]DA[X2]DDAAFQ[S8]F[Bta]Q-NH2)
Result :: 2.26

Query :: Recall and state the measured chromatographic logD for CC(=O)N1CCC[C@]12CC=CCCCC1(CCCC=CCCCCCC[C@@](C)(C(=O)N[C@@H](Cc3ccccc3)C(=O)N[C@@H](Cc3csc4ccccc34)C(=O)N[C@@H](Cc3ccco3)C(N)=O)NC(=O)[C@H](CCC(N)=O)NC(=O)[C@H](Cc3ccccc3)NC(=O)[C@H](C)NC(=O)[C@H](C)NC(=O)[C@H](CCC(=O)O)NC(=O)[C@H](CC(=O)O)NC1=O)NC(=O)[C@H](C)NC(=O)[C@H](CC(=O)O)NC2=O (stereo partly drawn) [I-490] .
Result :: 2.21
